- measured on: Yer064c (UniProt P40041)
- Sequence: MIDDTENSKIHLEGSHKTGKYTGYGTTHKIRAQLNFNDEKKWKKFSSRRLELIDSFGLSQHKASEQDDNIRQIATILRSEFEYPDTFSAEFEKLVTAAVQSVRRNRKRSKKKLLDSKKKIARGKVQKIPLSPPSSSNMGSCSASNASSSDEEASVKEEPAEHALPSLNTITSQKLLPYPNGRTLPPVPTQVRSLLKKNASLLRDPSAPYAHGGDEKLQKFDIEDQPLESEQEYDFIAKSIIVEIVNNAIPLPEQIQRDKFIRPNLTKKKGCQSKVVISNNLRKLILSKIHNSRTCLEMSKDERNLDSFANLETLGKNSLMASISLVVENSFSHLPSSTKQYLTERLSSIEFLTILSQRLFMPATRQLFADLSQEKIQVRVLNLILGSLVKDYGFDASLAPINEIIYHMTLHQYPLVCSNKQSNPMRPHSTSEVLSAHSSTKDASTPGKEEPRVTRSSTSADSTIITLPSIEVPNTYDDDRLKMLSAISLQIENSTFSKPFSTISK
- assay info: PBM E-score (8-mer binding enrichment) (E-score (-0.5 to 0.5)); higher = stronger / more preferred TF binding
- condition notes: protein concentration: 200 nM; construct: GST-full length
Whole data set: some 33,000 sequences, median “E-score (-0.5 to 0.5)” near -0.036, cut for the highest 2% near 0.37. The list comes from a sample in which the highest values are over-represented; it also holds close analogues and randomly drawn sequences.
Mark Not fulfilled for PBM E-score values under -0.02, and Fulfilled for everything at or above.

query sequence	assigned class
CCCGGACC	Not fulfilled
GGGTCGAA	Fulfilled
CTGGCGCC	Not fulfilled
CAACGTAC	Not fulfilled
ACATACAC	Fulfilled
GAGCACTC	Not fulfilled
AGGGCTGC	Not fulfilled
ATGTATTA	Fulfilled
CACTGTGG	Not fulfilled
ATATACTC	Fulfilled
ATGAAATA	Not fulfilled
GGCCGGGA	Not fulfilled
ACAACTGC	Not fulfilled
GCTCACAA	Fulfilled
GGTGAGCA	Fulfilled
TAATAGCA	Not fulfilled
GAGTCTGC	Fulfilled
CGTGGAGC	Not fulfilled
CTGGGCTA	Not fulfilled
CGATGTCA	Not fulfilled
CTTGCCGC	Not fulfilled
